Attribute: aptazyme ON/OFF ratio
B1: Pistol ribozyme (parent)
chain: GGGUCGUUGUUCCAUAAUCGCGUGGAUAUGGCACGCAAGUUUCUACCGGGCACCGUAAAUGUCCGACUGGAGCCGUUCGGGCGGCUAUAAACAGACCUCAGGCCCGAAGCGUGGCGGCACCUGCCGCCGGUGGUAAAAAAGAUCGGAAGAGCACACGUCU

Variants of: B1
ASSAY_PROCEDURE: aptazyme ON/OFF ratio, guanine; higher = stronger switching; co-transcriptional cleavage with and without guanine

| MUTATION_STRING | aptazyme ON/OFF ratio |
| --- | --- |
| U7G G9C U10A U11G C12A C13G | 1.11 |
| U7A U8G G9U U10G U11G C12A C13U | 1.21 |
| U8A G9U U10G U11C | 1.06 |
| U7G G9C U11C C12U | 2.15 |
| U7C U8A U11A | 1.13 |
| U7A U8C G9A C13A | 1.14 |
| U7C U8C G9U U10C U11C C12G C13U | 1.05 |
| U7G U8A G9A U11C C12A C13A | 1.19 |
| U8A C12U C13U | 1.38 |
| U7C G9C U10C U11C C13A | 1.02 |
| U7A U8A C12A C13A | 1.22 |
| U8G G9A U10C U11C C13A | 0.984 |
| U7A G9C U10A C12U C13U | 1.12 |
| U8G G9U U10C C12U C13U | 1.2 |
| U8A G9C U10G U11A C12A C13U | 1.21 |
| U7G U8G G9C U10A C12G C13U | 1.04 |
| U7G U8C U10G U11A C12U C13U | 1.17 |
| U7C U8C G9U U10C U11C C12G C13G | 1.18 |
| U7C U8C G9A U10C U11C C12G | 1.19 |
| U8A G9U U10A U11C C12U C13A | 1.25 |
| U7C U8C U10A U11A C12U C13G | 1.28 |
| G9C U10G U11A C12U C13U | 1.08 |
| U7A U8C G9C U10C U11A C12G C13A | 1.03 |
| U7C U10C C12A C13U | 1.34 |
| U7G U11G C12G C13G | 1.14 |
| U7C U8C G9A U10A U11C C13U | 1.11 |
| U7G G9U U11C C12G | 1.74 |
| U8C G9A U11A C12U C13G | 1.14 |
| U7C U8G G9A U10G C12G C13U | 1.17 |
| G9A U10G U11A C13A | 1.01 |
| U7A U8C G9C U10A U11A C12A | 1.09 |
| U7A U8C G9A U10A U11G C12G | 1.16 |
| U8G G9U U10G U11G C12A C13U | 1.05 |
| U7C G9U U10C C12G C13A | 1.05 |
| U7C U8C G9C U10C C12U | 1.94 |
| U7A G9A U10C U11C C12U C13U | 1.04 |
| U7G U8A U10A U11C C12A | 1.31 |
| U10G C12G C13G | 1.09 |
| U8A G9A U10G U11A C12U | 1.06 |
| U7A U8G G9U U11C C12A C13A | 1.68 |
| U7A G9U U10G U11G C12A C13G | 1.12 |
| U7G U8A G9C U10G U11C | 1.03 |
| U7C U8A U10C U11A C12U C13G | 1.17 |
| U7G U8G G9C U10G U11C C12G C13G | 1.05 |
| U8G G9U U11G C12A C13G | 1.19 |
| U7C U8C G9C U10A C12U C13G | 1.13 |
| U8A G9C U10A C12G C13A | 1.19 |
| U7C U8C U10C U11A C13U | 1.31 |
| U7A G9A U10A U11A C12G C13U | 1.05 |
| U8A U10G U11A C12G | 1.1 |
| U7C G9U U10A U11G C12U | 1.3 |
| U7A G9U U10C U11A C12G C13G | 1.14 |
| U7C G9C U10G U11C C12A | 1.19 |
| U7A U8C U10G U11C C12U | 1.28 |
| U8C G9A U10C U11C C12G | 1.18 |
| U7G U8G G9U U10G U11C C12G C13G | 1.05 |
| U7A U8G U10G C12U | 1.37 |
| U11A C13A | 1.26 |
| U7C U8C G9A U10A U11G C12U C13A | 1.13 |
| U7A U8A U11G C12U C13G | 1.25 |
| U8C G9C U10G U11C C12U C13G | 1.09 |
| U10A U11C C13G | 1.04 |
| U8C U11G C12A C13A | 1.16 |
| U8G G9U U11G C12U | 1.27 |
| U7A U8G G9C U10C U11C C12U C13G | 1.06 |
| G9A U10C C12G C13A | 1.23 |
| U7A U8G G9U U10G U11G C12A C13A | 1.12 |
| U7G U8C G9A U10A U11G C12G C13G | 1.14 |
| U8A G9C U10C C12U C13U | 1.03 |
| U8G G9C U11G C12A | 1.11 |
| U7G U8C G9A U10A U11C C12G C13G | 1.03 |
| U7A G9A U10C U11G C12A | 1.04 |
| U8A U10G U11C | 1.02 |
| U7C U8C G9A U10C U11C C12A C13U | 1.31 |
| U7A U8G U10C C12U C13G | 1.4 |
| U7A U8A G9A C13A | 1.11 |
| U7G U8G U10G U11C C13A | 1.02 |
| U7C U8A C12U C13G | 1.28 |
| U8C G9C U10A U11G C12U C13U | 1.22 |
| U7G U8G U10A U11A C12G C13G | 1.26 |
| U7A G9C U10A U11G C12G C13U | 1.18 |
| U7C U8A G9U U10A U11C C12U C13G | 1.13 |
| U7G U8C U11C C12U C13A | 1.34 |
| U7A U8C G9C U11C C13A | 1.05 |
| U7A U10G U11A C12U C13A | 1.29 |
| U7G G9U C12U C13G | 1.31 |
| U7C G9C U10G U11C C12A C13G | 1.09 |
| U8A G9A U10C C12A C13A | 1.19 |
| U8A G9A U10C U11C C12U | 1.07 |
| U7A U8C G9A U10A U11C C12U C13G | 1.15 |
| U7C U8A G9C U10G U11A C13A | 1.08 |
